This collection of values is drawn from patent US6566359B1.

target: intracellular type PAF receptor (rat brain microsomal preparations) (Rattus norvegicus, UniProt P46002); assay: Competition for 3H-PAF binding to rat brain cortex microsomal membranes; conditions: low-affinity binding site (L), rat brain microsomal
Sequence (P46002 whole entry): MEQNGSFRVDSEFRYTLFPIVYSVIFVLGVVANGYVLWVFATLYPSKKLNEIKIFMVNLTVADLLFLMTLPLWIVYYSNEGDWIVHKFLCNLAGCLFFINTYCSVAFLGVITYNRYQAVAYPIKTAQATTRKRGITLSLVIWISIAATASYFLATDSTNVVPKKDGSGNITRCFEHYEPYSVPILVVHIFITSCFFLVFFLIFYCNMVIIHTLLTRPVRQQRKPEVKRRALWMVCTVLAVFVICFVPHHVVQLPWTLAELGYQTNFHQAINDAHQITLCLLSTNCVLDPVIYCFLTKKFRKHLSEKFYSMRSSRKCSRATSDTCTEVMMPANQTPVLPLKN
measure-name: pKd
Please report pKd as the negative decimal logarithm of the molar concentration, giving only the number.

Lookup: Which pKd is reported for this compound? CCCCCCCCCCCCCCCCOC[C@H](COP(=O)([O-])OCC[N+](C)(C)C)OC(C)=O [^3H-PAF, ^3H-platelet-activating factor, reference compound]
Found: 7.52

====

target: intracellular type PAF receptor (rat brain microsomal preparations) (Rattus norvegicus); assay: Competition for 3H-PAF binding to rat brain cortex microsomal membranes; conditions: high-affinity binding site (H), rat brain microsomal
measure-name: Kd
A complete answer gives the number followed by the unit.

Lookup: Recorded Kd of CCCCCCCCCCCCCCCCOC[C@H](COP(=O)([O-])OCC[N+](C)(C)C)OC(C)=O [^3H-PAF, ^3H-platelet-activating factor, reference compound] , please.
Found: 2.05 pM

====

target: cell-surface-type PAF receptor over-expressed in CHO-B cells (Cavia porcellus, UniProt P21556)
Sequence (P21556 whole entry): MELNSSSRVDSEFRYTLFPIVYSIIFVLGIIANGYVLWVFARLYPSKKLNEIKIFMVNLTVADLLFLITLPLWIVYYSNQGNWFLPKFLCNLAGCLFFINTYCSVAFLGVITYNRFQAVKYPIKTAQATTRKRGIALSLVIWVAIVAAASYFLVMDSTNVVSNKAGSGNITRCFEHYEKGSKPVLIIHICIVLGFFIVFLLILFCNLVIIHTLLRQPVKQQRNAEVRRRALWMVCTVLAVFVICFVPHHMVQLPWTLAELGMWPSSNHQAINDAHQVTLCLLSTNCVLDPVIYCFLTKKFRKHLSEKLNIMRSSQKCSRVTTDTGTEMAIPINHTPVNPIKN
measure-name: pKd
The quantity pKd is defined as the negative base-10 logarithm of the molar concentration.

Lookup: What value of pKd has been reported for the following compound? CCCCCCCCCCCCCCCCOC[C@H](COP(=O)([O-])OCC[N+](C)(C)C)OC(C)=O [^3H-PAF, ^3H-platelet-activating factor, reference compound]
Found: 9.82
